B1: Myocardin-related transcription factor A, residues 341 to 383; numbered along this chain, Q969V6 (parent)
chain: GALPANLDDMKVAELKQELKLRSLPVSGTKTELIERLRAYQDQ

Variants of: B1
procedure-details: abundance fitness (aPCA) (normalised: wild type 0, dead -1); higher = more abundant; growth selection in yeast, the domain comes from the species named
run-parameters: Homo sapiens
Below, each of the variants is paired with its reported abundance fitness value.
readout-label: abundance fitness

                                       chain   value
 0  GALPANLDDMKVAELKQELKLRSLDVSGTKTELIERLRAYQDQ [P25D]  -0.197
 1  GALPANLDDMKVAELKQELKLRSLPVSGTKTELGERLRAYQDQ [I34G]  -0.305
 2  GALPANLDDMKVAELKQELKLRSLPVSQTKTELIERLRAYQDQ [G28Q]  -0.659
 3  GALPANLDDMKVAELKQELKLRSLPLSGTKTELIERLRAYQDQ [V26L]   0.229
 4  GALPANLDDMKVAELKQELKLRSLPVSGTKTERIERLRAYQDQ [L33R]  -0.617
 5  GALPANLDDMKVAELKQELKLRSLPVSGTKTELIERLRAYCDQ [Q41C]   0.061
 6  GALPANLDDMKVAELKQELKLRSLPVSGRKTELIERLRAYQDQ [T29R]  -0.196
 7  GALPANLDDMKVAELKQELKLRSLPVSGTKTELIERLRAYQDT [Q43T]   0.164
 8  GALPANLDDMKVAELKQELKLRSLPVGGTKTELIERLRAYQDQ [S27G]  -0.012
 9  GALPANLDDMKVAELKQELKLRSLPVSGTKTELIERARAYQDQ [L37A]  -0.435
10  GALPANLDDMKVAELKQELKLRSLPVSGTKTWLIERLRAYQDQ [E32W]   -1.15
11  GALPANLDDMKVAELKQELKLRSLFVSGTKTELIERLRAYQDQ [P25F]  -0.963

Entry source: the Human Domainome abundance scans (Beltran et al. 2025)
